Measured normalized growth accompanies every entry in the list below.
assay.text: chemical genetic growth profiling, strain panel (AID 1159580);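 further: tested at 20 µM; growth read once vehicle control cultures reached saturation at 30 °C; 1 = growth at the plate median or of vehicle wells; lower values mean less growth of the strain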
reported.conditions: S. cerevisiae deletion strains, growth OD, strain NNK1, stronger effect = lower value
The whole screen tested about 5,500 compounds, of which about 2,000 (36%) were called active. Roughly 18% stayed inconclusive and do not appear here. The list shows a part of the results.
metric.name: normalized growth

compound=COc1ccc(OC)c2nc3c(nc12)C(=O)c1ccccc1-3 measured_result=0.98
compound="C=CCC1C(=O)N(S(=O)(=O)c2ccc(Cl)cc2)N=C1CCC (stereo not drawn)" measured_result=0.982
compound=COc1cc(C2SCCS2)cc(Br)c1OC(=O)NC(=O)c1c(Cl)cccc1Cl measured_result=0.957
compound=N/C(=N/OCc1c(F)cccc1Cl)c1ccc(Cl)cc1 measured_result=0.899
compound="N#CC(C(=O)Nc1cccc(C(F)(F)F)c1)C(=S)Nc1ccccc1Cl (stereo not drawn)" measured_result=1.02
compound=CC(C)Sc1c(Cl)cccc1NC(=O)Nc1ccccc1 measured_result=0.942
compound=O=C(Nc1cc(Cl)cc(Cl)c1)c1cc(Br)ccc1O measured_result=0.964
compound=COc1ccc(Oc2ccc([N+](=O)[O-])cc2C(=O)O/N=C(/N)c2ccc(C(F)(F)F)cc2)cc1 measured_result=0.982
compound=Cc1oc(C(C)(C)C)cc1-c1cc(NC(=O)c2ccccc2)n[nH]1 measured_result=0.951
compound=O=C(Nc1cc(Cl)cc(Cl)c1)c1cc(Cl)ccc1O measured_result=0.965
compound=O=C(Nc1ccc(F)cc1F)c1cc(Cl)ccc1O measured_result=0.965
compound=Cc1cc(C)c2cc(C(=O)NCCNc3ccc(C(F)(F)F)cn3)[nH]c2c1 measured_result=0.94
compound=COC(=O)c1cccc(NS(=O)(=O)c2ccc(Cl)c(Cl)c2)c1 measured_result=0.966
compound=O=C(Nc1ccc(F)cc1)c1cc(Br)ccc1O measured_result=0.927
compound=CCOC(=O)c1cnc(-c2ccccn2)[nH]c1=O measured_result=0.932
compound=S=C(NCc1cccs1)Nc1cc(Cl)cc(Cl)c1 measured_result=0.959
compound=Cn1ncc(-c2nc(-c3ccc(Cl)cc3)cs2)c1N measured_result=0.966
compound=O=S(=O)(Nc1cc(C(F)(F)F)cc(C(F)(F)F)c1)c1ccc(Cl)s1 measured_result=0.919
compound=FC(F)(F)c1ccncc1-c1nc(-c2ccc(Cl)cc2)cs1 measured_result=0.942
compound=Cc1cc(Sc2c([N+](=O)[O-])cc(C(F)(F)F)cc2[N+](=O)[O-])c(Cl)cc1Cl measured_result=0.99
compound=O=C(OCCNc1ccc([N+](=O)[O-])cn1)c1ccc([N+](=O)[O-])o1 measured_result=0.913
compound=O=S(=O)(Nc1c(F)cccc1F)c1ccc(Cl)c(Cl)c1 measured_result=0.953
compound=O=C(/C=C/c1ccc(Cl)cc1)Nc1cccc(Cl)c1 measured_result=0.96

----------
assay.text: chemical genetic growth profiling, strain panel (AID 1159580);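 further: tested at 20 µM; growth read once vehicle control cultures reached saturation at 30 °C; 1 = growth at the plate median or of vehicle wells; lower values mean less growth of the strain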
reported.conditions: S. cerevisiae deletion strains, growth OD, locus YGR229C, strain SMI1
Out of some 5,500 compounds screened, about 2,000 (36%) were called active. Roughly 18% stayed inconclusive and do not appear here. Cut-off read from the data, not from the text of the source: active = normalized growth mostly below about 0.91 (no sharp cut-off); inconclusive = no clear call, values can overlap the other calls; inactive = mostly above about 0.92. This is one part of the list.
Classes used: 1 (yes) = active, 0 (no) = inactive

compound=Cc1cccc(NC(=O)c2ccccc2)c1 answer_label="0 (no)"
compound=Cc1cc(S(=O)(=O)NCCNc2nccc(C(F)(F)F)n2)c(C)cc1Cl answer_label="0 (no)"
compound="CCOC(=O)c1ccc(N2CC3CCCCN3C2c2ccc(Cl)c(Cl)c2)cc1 (stereo not drawn)" answer_label="0 (no)"
compound="COC[C@H]1OC(=O)c2coc3c2[C@@]1(C)C1=C(C3=O)C2CCC(=O)[C@@]2(C)C[C@H]1OC(C)=O (stereo partly drawn)" answer_label="1 (yes)"
compound=O=C(/C=C/c1ccccc1)c1c(O)cc(O)cc1O answer_label="0 (no)"
compound="Cc1cc(S(=O)(=O)NC(Cc2ccc([N+](=O)[O-])cc2)C(=O)O)c(Cl)cc1Cl (stereo not drawn)" answer_label="0 (no)"
compound=CC(C)(C)c1cc(C(=O)NN)n[nH]1 answer_label="0 (no)"
compound=COc1cc(Cc2cnc(N)nc2N)cc(OC)c1OC answer_label="0 (no)"
compound="CC(=O)OC[C@@]1(O)C[C@@]23CCC4c5ccoc5CC[C@]4(C)C2CC[C@@H]1C3 (stereo partly drawn)" answer_label="1 (yes)"
compound=O=[N+]([O-])c1cc(C(F)(F)F)cc([N+](=O)[O-])c1Oc1ccc(Cl)c(Cl)c1 answer_label="1 (yes)"
compound="COC1=CC23CCCN2CCc2cc4c(cc2C3C1O)OCO4 (stereo not drawn)" answer_label="0 (no)"
compound=O=C(CNc1cccc(Cl)c1)c1ccc(Cl)cc1 answer_label="1 (yes)"
compound=O=C(OCCNc1ccc([N+](=O)[O-])cn1)c1ccc([N+](=O)[O-])o1 answer_label="0 (no)"
compound="COP(=O)(NC(C)=O)SC (stereo not drawn)" answer_label="0 (no)"
compound="Nc1nc(SCc2ccc([N+](=O)[O-])cc2)c2ncn([C@@H]3O[C@H](CO)[C@H](O)C3O)c2n1 (stereo partly drawn)" answer_label="0 (no)"
compound=CCCN(CCC)c1c([N+](=O)[O-])cc(C(F)(F)F)cc1[N+](=O)[O-] answer_label="0 (no)"
compound=CCCCN(CC)c1c([N+](=O)[O-])cc(C(F)(F)F)cc1[N+](=O)[O-] answer_label="0 (no)"
compound="CC(NC(C)(C)C)C(=O)c1cccc(Cl)c1 (stereo not drawn)" answer_label="0 (no)"
compound=COc1ccc(NC(=O)/C=C/c2ccc(Cl)cc2)cc1 answer_label="0 (no)"
compound=Cn1nccc1NS(=O)(=O)c1ccc(C(C)(C)C)cc1 answer_label="0 (no)"
compound=CC(C)OC(=O)Nc1cccc(Cl)c1 answer_label="0 (no)"
compound=Oc1ccccc1O answer_label="0 (no)"
compound=O=C(NNC(=O)c1ccc[nH]1)Nc1cc(Cl)cc(Cl)c1 answer_label="0 (no)"

----------
assay.text: chemical genetic growth profiling, strain panel (AID 1159580);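 further: tested at 20 µM; growth read once vehicle control cultures reached saturation at 30 °C; 1 = growth at the plate median or of vehicle wells; lower values mean less growth of the strain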
reported.conditions: S. cerevisiae deletion strains, growth OD, locus YDR137W, strain rgp1, stronger effect = lower value
Hit rate of the full screen: of about 5,500 compounds, about 2,000 (36%) were called active. Inconclusive results (about 18%) are left out. This is one part of the list.
Definition: the class of an entry is the range in low end (below 0.8), middle (0.8 to below 1), high end (1 or more) that contains its normalized growth.

compound=O=C1C=CC(=O)c2c(O)cccc21 answer_label="low end"
compound=O=c1c(O)c(-c2ccccc2)oc2cccc(O)c12 answer_label="low end"
compound=COc1cc(O)ccc1C(C)=O answer_label="high end"
compound="Cc1cc2nc3c(=O)[nH]c(=O)nc-3n(CC(O)C(O)C(O)CO)c2cc1C (stereo unspecified)" answer_label="high end"
compound=CC[C@H]1OC(=O)[C@H](C)[C@@H](O[C@H]2C[C@@](C)(OC)[C@@H](O)[C@H](C)O2)[C@H](C)[C@@H](O[C@@H]2O[C@H](C)C[C@H](N(C)C)[C@H]2O)[C@](C)(O)C[C@@H](C)/C(=N/OCOCCOC)[C@H](C)[C@@H](O)[C@]1(C)O answer_label=middle

----------
assay.text: chemical genetic growth profiling, strain panel (AID 1159580);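 further: tested at 20 µM; growth read once vehicle control cultures reached saturation at 30 °C; 1 = growth at the plate median or of vehicle wells; lower values mean less growth of the strain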
reported.conditions: S. cerevisiae deletion strains, growth OD, locus YDL101C, strain DUN1, stronger effect = lower value
Hit rate of the full screen: of about 5,500 compounds, about 2,000 (36%) were called active. About 18% were inconclusive and are not listed. Some of the results follow.
metric.name: normalized growth

compound=N#CCC(=O)N(Cc1ccccc1F)C(=O)NC1CCCCC1 measured_result=0.994
compound=NS(=O)(=O)c1cc2c(cc1Cl)NCNS2(=O)=O measured_result=1.01
compound=COc1ccc(OC)c2nc3c(nc12)C(=O)c1ccccc1-3 measured_result=0.953
compound=CCC[C@@H]1C[C@@H](C(=O)N[C@H]([C@H]2O[C@H](SC)[C@H](O)[C@@H](O)[C@H]2O)[C@H](C)O)N(C)C1 measured_result=0.983
compound=C[C@]12CC[C@@H](O)C[C@H]1CCc1ccccc12 measured_result=1.01
compound=C/C(=C\CO)CC[C@H](C)CCC[C@H](C)CCCC(C)C measured_result=1.08
compound=O=c1c(O)cccc2cc(O)c(O)c(O)c12 measured_result=0.457
compound="O=C(CSCc1c(Cl)cccc1Cl)NNC(=S)NC1CC2C=CC1C2 (stereo not given)" measured_result=0.94
compound=O=c1c(O)c(-c2ccccc2)oc2ccccc12 measured_result=0.997
compound=Nc1ccccc1C(=O)NCCc1ccc(Cl)cc1 measured_result=0.987
compound=O=[N+]([O-])c1ccc(NCCCCCO)nc1 measured_result=0.966
compound=O=C(NNC(=S)Nc1cccc(Cl)c1)c1cccnc1 measured_result=0.978
compound="CC1CN=C(NC2CCCCC2)S1 (stereo not given)" measured_result=0.977
compound=CC(C)[C@@H]1CC[C@@H](C)C[C@H]1OC(=O)c1ccccc1 measured_result=0.999
compound=CC(=O)OCCCCN1C(=O)c2ccccc2C1=O measured_result=1.04
compound="C[C@]12[C@H](O)CC3C(CC[C@@H]4C[C@@H](O)CC[C@]34C)[C@@]1(O)CC[C@@H]2C1=CC(=O)OC1 (stereo not given in full)" measured_result=1.01
compound=O=C(O)c1cccnc1C(=O)O measured_result=1.04
compound=Oc1cccc2cccnc12 measured_result=0.869
compound="NC(Cc1ccc(Cl)cc1)C(=O)O (stereo not given)" measured_result=0.983
compound=O=c1c(O)c(-c2ccccc2)oc2cc(O)ccc12 measured_result=0.697
compound=COc1ccc(CCNC(=O)c2ccccc2Cl)cc1OC measured_result=1
compound="Cc1cc(S(=O)(=O)NC(Cc2ccc([N+](=O)[O-])cc2)C(=O)O)c(Cl)cc1Cl (stereo not given)" measured_result=0.997
compound=Nc1nc(Sc2cc(-n3cccc3)c(Cl)cc2[N+](=O)[O-])n[nH]1 measured_result=0.998
compound=Cn1c(Sc2ccc(C(F)(F)F)cc2[N+](=O)[O-])nnc1C(F)(F)F measured_result=1.02
compound=CC(C)=CCC/C(C)=C/CO measured_result=1.01
